- Tested on: Wolbachia pipientis
- Assay Method Text: Anti-Wolbachia Cell-Based Screen
- Type: functional
- Design: scale not given: in the data most compounds retested in dose-response had high values
- Details: 5 µM
Out of some 48,000 compounds screened, about 13,000 (27%) showed an effect of 50% or more. Some of the results follow.
Recorded measurements of Percent Effect, one per entry
Answer with a number only, understood to be in %.

Some molecules with known Percent Effect results, for comparison:
molecule=O=C(NC1CC(F)(F)C1)[C@]12COC[C@H]1CN(Cc1cccnc1)C2.O=C(O)C(F)(F)F.O=C(O)C(F)(F)F value_measured=1.025
molecule="COc1ccc(C(=O)N2CCOC3(CNCCOC3)C2)c(OC)n1 (stereo not given)" value_measured=-6.762
molecule="COCC1CC2(CCNCC2)CN1c1ncccn1 (stereo not given)" value_measured=-4.112

[Q] Tell me its Percent Effect given CCS(=O)(=O)NC[C@]12COC[C@H]1CN(Cc1cccnc1)C2.O=C(O)C(F)(F)F.O=C(O)C(F)(F)F as the entry.
[A] -8.022

[Q] Tell me its Percent Effect given COc1cccc([C@@H]2CCN(Cc3ccc4ccccc4n3)C[C@H]2O)c1 as the entry.
[A] -2.697

Where do the numbers come from? From ChEMBL document CHEMBL3988442.
